- Read-out: CYP2C9 (gene 1559)
- test_method_notes: LTEA_HepaRG_CYP2C9: Life Technologies and Expression Analysis (LTEA) Assay for CYP2C9 using HepaRG (AID 2283484)
- assay_conditions: mRNA level, 48 h; actives raise or lower the signal
Active and inactive are the calls of the source. Rule for the calls: active = hit-call score of the fitted dose curve at least 0.9, where 1 is the maximum; inactive = score below 0.9.
Entry note: the call must match one of 1 (yes) (active), 0 (no) (inactive)

Known results for compounds:
Oc1ccc2ccccc2c1 | 0 (no)
COc1ccc2cc(S(=O)(=O)N[C@H](CC(=O)N[C@H](Cc3ccc(CN4[C@H](C)CCC[C@@H]4C)cc3)C(=O)N(C)C(C)C)c3ccc4c(c3)OCO4)ccc2c1 | 1 (yes)

input: Could you kindly confirm the outcome this assay logged for `CCCCCCCCCC(=O)O` ?
output: 0 (no)

input: Please give the result for `CCN(Cc1cccc(S(=O)(=O)O)c1)c1ccc(C(=C2C=CC(=[N+](CC)Cc3cccc(S(=O)(=O)O)c3)C=C2)c2ccccc2S(=O)(=O)[O-])cc1` too.
output: 0 (no)

input: Please give the result for `Cc1cc2c(cc1C(F)(F)F)N(C(=O)Nc1ccc(Oc3cccnc3C)nc1)CC2` too.
output: 1 (yes)

input: Please give the result for `CCCCCCCCCCCC[N+](C)(C)C` too.
output: 1 (yes)

input: Please give the result for `CC1(C)NC(=O)N(c2ccc([N+](=O)[O-])c(C(F)(F)F)c2)C1=O` too.
output: 1 (yes)

input: Please give the result for `c1ccc2ccccc2c1` too.
output: 0 (no)

input: Please give the result for `O=C(OCCCCCCOC(=O)c1ccccc1)c1ccccc1` too.
output: 0 (no)

input: Please give the result for `CCCCCCCCOC(=O)c1cc(O)c(O)c(O)c1` too.
output: 0 (no)
